Item-by-item account of self-aminoacylation
# Tested on: biotinyl-Trp-oxazolone
# ASSAY NAME: self-aminoacylation, catalytic enhancement (BWO) (fold over background); higher = more active; k-Seq, kA / k0A0; sequences stand for … in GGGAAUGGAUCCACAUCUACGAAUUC…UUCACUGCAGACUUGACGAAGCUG
Fewer inactive variants are shown than the library holds.

{"CHAIN SEQUENCE": "AUUAUACUGGUCAUCGAGUGA [Fam2.1 aminoacylation ribozyme variant]", "self-aminoacylation": 5.99}
{"CHAIN SEQUENCE": "AUUCGCCUAGGUCAACGGGUG [Fam2.2 aminoacylation ribozyme variant]", "self-aminoacylation": 3.75}
{"CHAIN SEQUENCE": "UUUACCCUGGUCAUUGAGUGA [Fam2.1 aminoacylation ribozyme variant]", "self-aminoacylation": 10.1}
{"CHAIN SEQUENCE": "AAUACCCUGGUCAUAGAGUGA [Fam2.1 aminoacylation ribozyme variant]", "self-aminoacylation": 5.58}
{"CHAIN SEQUENCE": "AUAACCCUGGUCCUCGAGUGA [Fam2.1 aminoacylation ribozyme variant]", "self-aminoacylation": 3.38}
{"CHAIN SEQUENCE": "AUUACUCUGGUCAUCGUGUGA [Fam2.1 aminoacylation ribozyme variant]", "self-aminoacylation": 3.34}
{"CHAIN SEQUENCE": "GUUACCCUUGUCAUCGAGUGA [Fam2.1 aminoacylation ribozyme variant]", "self-aminoacylation": 10.7}
{"CHAIN SEQUENCE": "CCAAAGUUCAAGCAAUCGGUC [Fam1B.1 aminoacylation ribozyme variant]", "self-aminoacylation": 1.17}
{"CHAIN SEQUENCE": "AUAACCCUGGUCAUCGAGUAA [Fam2.1 aminoacylation ribozyme variant]", "self-aminoacylation": 2.47}

* * *

# System: biotinyl-Trp-oxazolone
# ASSAY NAME: self-aminoacylation, catalytic enhancement (BWO) (fold over background); higher = more active; k-Seq, kA / k0A0; sequences stand for … in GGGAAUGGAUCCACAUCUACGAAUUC…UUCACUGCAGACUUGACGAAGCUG
This sample holds only a part of the variants without activity.
Item-by-item account of self-aminoacylation
READOUT: self-aminoacylation

{"CHAIN SEQUENCE": "AUUCCCCGGGUCAUCGAGUGA [Fam2.1 aminoacylation ribozyme variant]", "TEST VALUE": 6.46}
{"CHAIN SEQUENCE": "CUACUUCAAACAACCGGUCUU [Fam1A.1 aminoacylation ribozyme variant]", "TEST VALUE": 1.05}
{"CHAIN SEQUENCE": "ACGUUUGCAAAUAGUCGCAAG [Fam3.1 aminoacylation ribozyme variant]", "TEST VALUE": 1.2}
{"CHAIN SEQUENCE": "AUUCACCUACGACAUCGGGUG [Fam2.2 aminoacylation ribozyme variant]", "TEST VALUE": 3.95}
{"CHAIN SEQUENCE": "AAUUUUGCUAGUAGUCGCAAG [Fam3.1 aminoacylation ribozyme variant]", "TEST VALUE": 1.71}

* * *

# Tested on: biotinyl-Val-oxazolone
# ASSAY NAME: self-aminoacylation, catalytic enhancement (BVO) (fold over background); higher = more active; k-Seq, kA / k0A0; sequences stand for … in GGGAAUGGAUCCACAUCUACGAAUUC…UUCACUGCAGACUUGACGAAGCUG
This sample holds only a part of the variants without activity.
Hi, to clarify the labels: criterion met covers self-aminoacylation from 2 upward, criterion not met covers anything below 2.

{"CHAIN SEQUENCE": "CCGCACUUCGAGCAAUCGGUC [Fam1B.1 aminoacylation ribozyme variant]", "SYSTEM UNDER TEST": "biotinyl-Val-oxazolone", "QUALITATIVE LABEL": "criterion met"}
{"CHAIN SEQUENCE": "AUUCACCUAGUUCAUCGAGUG [Fam2.2 aminoacylation ribozyme variant]", "SYSTEM UNDER TEST": "biotinyl-Val-oxazolone", "QUALITATIVE LABEL": "criterion not met"}
{"CHAIN SEQUENCE": "AUUUCCCUGGUCAUCGAGUGG [Fam2.1 aminoacylation ribozyme variant]", "SYSTEM UNDER TEST": "biotinyl-Val-oxazolone", "QUALITATIVE LABEL": "criterion met"}
{"CHAIN SEQUENCE": "AUUAUCCUGGUCAUCGAGUGC [Fam2.1 aminoacylation ribozyme variant]", "SYSTEM UNDER TEST": "biotinyl-Val-oxazolone", "QUALITATIVE LABEL": "criterion not met"}
{"CHAIN SEQUENCE": "AUUACCGUGGUCAUCGACUGA [Fam2.1 aminoacylation ribozyme variant]", "SYSTEM UNDER TEST": "biotinyl-Val-oxazolone", "QUALITATIVE LABEL": "criterion not met"}
{"CHAIN SEQUENCE": "AUUCCCCUGGUCAUCGGGUGA [Fam2.1 aminoacylation ribozyme variant]", "SYSTEM UNDER TEST": "biotinyl-Val-oxazolone", "QUALITATIVE LABEL": "criterion met"}
{"CHAIN SEQUENCE": "CCACAUUUCAAGGAAUCGGUC [Fam1B.1 aminoacylation ribozyme variant]", "SYSTEM UNDER TEST": "biotinyl-Val-oxazolone", "QUALITATIVE LABEL": "criterion not met"}
{"CHAIN SEQUENCE": "AUUAUUCUGGUCAUCGAGUGA [Fam2.1 aminoacylation ribozyme variant]", "SYSTEM UNDER TEST": "biotinyl-Val-oxazolone", "QUALITATIVE LABEL": "criterion met"}
{"CHAIN SEQUENCE": "AUUCACUUAGGUCAUCGAGUG [Fam2.2 aminoacylation ribozyme variant]", "SYSTEM UNDER TEST": "biotinyl-Val-oxazolone", "QUALITATIVE LABEL": "criterion not met"}
